Entries and their melting point

Please fill in: melting point reported for O=C1/C(=C\c2cccc(Cl)c2)SC(c2cccc(Cl)c2)N1CCCN1CCCCC1 (centres unmarked) [Compound 2] = 137 to 139 °C

Reported melting point ( O=C1CSC(c2cccc(Cl)c2)N1C1CCN(Cc2ccccc2)CC1 (centres unmarked) [Compound 16] ) = 140 to 141 °C

// recorded melting point for O=C1/C(=C\c2ccco2)SC(c2cccc(Cl)c2)N1CCCN1CCCCC1 (centres unmarked) [Compound 20] : 156 to 158 °C

What the record says about O=C1/C(=C\c2cccc(F)c2)SC(c2cccc(F)c2)N1CCCN1CCC(N2CCCCC2)CC1 (centres unmarked) [Compound 6] : melting point is 160 to 162 °C

// melting point value for O=C1/C(=C\C2CCCCC2)SC(c2cccc(Cl)c2)N1CCCN1CCCCC1 (centres unmarked) [Compound 14] : 90 to 91 °C

----------
QUANTITY: melting point

Answered cases to consult:
CCN(CC)CCSCCCN1C(=O)/C(=C\c2cccc(F)c2)SC1c1cccc(Cl)c1 (stereo not shown) :: 41 to 43 °C
O=C1/C(=C\c2cccc(F)c2)SC(c2cccc(Cl)c2)N1C1CCN(Cc2ccccc2)CC1 (stereo not shown) :: 121 to 123 °C
O=C1/C(=C\c2cccc(F)c2)SC(c2cccc(F)c2)N1CCCN1CCOCC1 (stereo not shown) :: 149 to 150 °C

response.value for O=C1/C(=C\c2cccc(F)c2)SC(c2cccc(Cl)c2)N1CCCN1CCOCC1 (stereo not shown) (field: melting point) = 142 to 143 °C

----------
A set of compounds tested on CCR-5 receptor (Homo sapiens), with measured IC50:
QUANTITY: IC50 (nM)

O=C1C(=Cc2ccccc2)SC(c2ccccc2)N1CCCN1CCCCCC1 (stereo not shown) :: 1400
O=C1CSC(c2cccc(Cl)c2)N1C1CCN(Cc2ccccc2)CC1 (stereo not shown) :: 3810
O=C1/C(=C\c2ccccc2)SC(c2cccc(Cl)c2)N1CCCN1CCCCC1 (stereo not shown) :: 280

I: O=C1/C(=C\c2cccc(F)c2)SC(c2cccc(F)c2)N1CCCN1CCOCC1 (stereo not shown)
II: O=C1/C(=C\c2cccc(F)c2)SC(c2cccc(F)c2)N1CCCN1CCC(N2CCCCC2)CC1 (stereo not shown)
III: O=C1/C(=C\c2ccncc2)SC(c2cccc(Cl)c2)N1CCCN1CCCCC1 (stereo not shown)
IV: O=C1/C(=C\c2ccc[nH]2)SC(c2cccc(Cl)c2)N1CCCN1CCCCC1 (stereo not shown)
Form: Sort by [IC50] Order [ ascending ] I'd appreciate it if you listed the labels in the requested order.
IV, III, II, I

----------
- STUDY TARGET: CCR-5 receptor (Homo sapiens, UniProt P51681)
- Construct: membranes prepared from CCR-5/L 1.2 cells; expressed in transfected cells; host or cells: L1.2 cells (CCR-5/L 1.2), membrane preparation
- Sequence (P51681 whole entry): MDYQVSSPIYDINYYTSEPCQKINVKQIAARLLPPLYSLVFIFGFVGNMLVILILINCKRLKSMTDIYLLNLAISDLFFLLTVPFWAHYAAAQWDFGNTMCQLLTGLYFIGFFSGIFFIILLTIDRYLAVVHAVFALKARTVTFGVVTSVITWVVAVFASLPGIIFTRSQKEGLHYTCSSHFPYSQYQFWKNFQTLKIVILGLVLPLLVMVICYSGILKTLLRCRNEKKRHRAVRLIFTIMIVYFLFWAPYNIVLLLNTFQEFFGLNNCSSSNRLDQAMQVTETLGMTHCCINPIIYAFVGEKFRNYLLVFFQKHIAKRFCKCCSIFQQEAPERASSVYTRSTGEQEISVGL
- TEST SUMMARY: 125I-gp120/sCD4/CCR-5 binding assay (CCR-5 receptor binding assay)
- STUDY CONDITIONS: 10 μM compound; 125I-gp120/sCD4 binding to membranes from CCR-5/L 1.2 cells
- Procedure: The ^125I-gp120/sCD4/CCR-5 binding assay is carried out similarly as described in Wu et al., Nature, 1996;384:179-183. Briefly, the envelope gp120 protein derived from HIV-1 JR-FL (Trkola et al., Nature, 1996;384:184-186), a M-tropic strain, is iodinated using solid phase lactoperoxidase to a specific activity of 20 μCi/μg. […]
QUANTITY: % Inhib. @ 10 μM (%)

A: O=C1C(=Cc2cccc(Cl)c2)SC(c2cccc(F)c2)N1CCCN1CCN(C2CCCCC2)CC1 (stereo not drawn)
B: O=C1C(=Cc2cccc(C(F)(F)F)c2)SC(c2cccc(Cl)c2)N1CCCN1CCN(c2ncccn2)CC1 (stereo not drawn)
Hey, which is lower on measured % Inhib. @ 10 μM, A or B ? Give the chosen item's label as your response.
A

----------
- STUDY TARGET: CCR-5 receptor (Homo sapiens, UniProt P51681)
- Construct: membranes prepared from CCR-5/L 1.2 cells; expressed in transfected cells; host or cells: L1.2 cells (CCR-5/L 1.2), membrane preparation
- TEST SUMMARY: 125I-gp120/sCD4/CCR-5 binding assay (CCR-5 receptor binding assay)
- STUDY CONDITIONS: 10 μM compound; 125I-gp120/sCD4 binding to membranes from CCR-5/L 1.2 cells; read-out: % Inhib. @ 10 μM
QUANTITY: inhibition at 10 µM (%)

O=C1C(=Cc2ccccc2)SC(c2cccc(F)c2)N1CCCN1CCC(N2CCCCC2)CC1 (stereo not shown) [Compound 37] :: 56.6
O=C1C(=Cc2cccc(Cl)c2)SC(c2cccc(C(F)(F)F)c2)N1CCCN1CCN(c2ncccn2)CC1 (stereo not shown) [Compound 45] :: 57.7
O=C1C(=Cc2cccc(F)c2)SC(c2cccc(F)c2)N1CCCN1CCN(c2ccccn2)CC1 (stereo not shown) [Compound 26] :: 75.3
O=C1C(=Cc2ccccc2)SC(c2cccc(Cl)c2)N1CCCN1CCOCC1 (stereo not shown) [Compound 42] :: 64.7

----------
- STUDY TARGET: CCR-5 receptor (Homo sapiens, UniProt P51681)
- Construct: membranes prepared from CCR-5/L 1.2 cells; expressed in transfected cells; host or cells: L1.2 cells (CCR-5/L 1.2), membrane preparation
- TEST SUMMARY: 125I-gp120/sCD4/CCR-5 binding assay (CCR-5 receptor binding assay)
- STUDY CONDITIONS: 10 μM compound; 125I-gp120/sCD4 binding to membranes from CCR-5/L 1.2 cells; read-out: % Inhib. @ 10 μM
- Description: The ^125I-gp120/sCD4/CCR-5 binding assay is carried out similarly as described in Wu et al., Nature, 1996;384:179-183. Briefly, the envelope gp120 protein derived from HIV-1 JR-FL (Trkola et al., Nature, 1996;384:184-186), a M-tropic strain, is iodinated using solid phase lactoperoxidase to a specific activity of 20 μCi/μg. […]
QUANTITY: inhibition at 10 µM (%)

Guide cases for inhibition at 10 µM, answers given:
O=C1C(=Cc2ccccc2)SC(c2cccc(Cl)c2)N1CCCN1CCC(N2CCCCC2)CC1 (stereo not drawn) [Compound 41] :: 62.4
O=C1C(=Cc2ccccc2)SC(c2cccc(F)c2)N1CCCN1CCN(C2CCCCC2)CC1 (stereo not drawn) [Compound 38] :: 54.4
O=C1C(=Cc2ccccc2)SC(c2cccc(Cl)c2)N1CCCN1CCN(c2ncccn2)CC1 (stereo not drawn) [Compound 43] :: 95
O=C1C(=Cc2cccc(Cl)c2)SC(c2cccc(Cl)c2)N1CCCN1CCN(c2ncccn2)CC1 (stereo not drawn) [Compound 51] :: 84
O=C1C(=Cc2cccc(C(F)(F)F)c2)SC(c2cccc(Cl)c2)N1CCCN1CCCCC1 (stereo not drawn) [Compound 31] :: 54.4

A: O=C1C(=Cc2ccccc2)SC(c2cccc(Cl)c2)N1CCCN1CCN(C2CCCCC2)CC1 (stereo not drawn) [Compound 44]
B: O=C1C(=Cc2cccc(F)c2)SC(c2cccc(Cl)c2)N1CCCN1CCN(c2ncccn2)CC1 (stereo not drawn) [Compound 29]
Recorded inhibition at 10 µM values differ for A and B ; which one is higher? Return value: the label identifying the chosen record.
B

----------
- STUDY TARGET: CCR-5 receptor (Homo sapiens, UniProt P51681)
- Construct: membranes prepared from CCR-5/L 1.2 cells; expressed in transfected cells; host or cells: L1.2 cells (CCR-5/L 1.2), membrane preparation
- TEST SUMMARY: 125I-gp120/sCD4/CCR-5 binding assay (CCR-5 receptor binding assay)
- STUDY CONDITIONS: 10 μM compound; 125I-gp120/sCD4 binding to membranes from CCR-5/L 1.2 cells
QUANTITY: % Inhib. @ 10 μM (%)

O=C1C(=Cc2cccc(F)c2)SC(c2cccc(Cl)c2)N1CCCN1CCN(c2ccccn2)CC1 (stereo not shown) :: 78.8
O=C1C(=Cc2cccc(Cl)c2)SC(c2cccc(C(F)(F)F)c2)N1CCCN1CCN(C2CCCCC2)CC1 (stereo not shown) :: 51.1
O=C1C(=Cc2cccc(Cl)c2)SC(c2cccc(F)c2)N1CCCN1CCN(c2ccccn2)CC1 (stereo not shown) :: 75.6
O=C1C(=Cc2ccccc2)SC(c2cccc([N+](=O)[O-])c2)N1CCCN1CCN(c2ncccn2)CC1 (stereo not shown) :: 70.1

----------
- STUDY TARGET: CCR-5 receptor (Homo sapiens, UniProt P51681)
- Construct: membranes prepared from CCR-5/L 1.2 cells; expressed in transfected cells; host or cells: L1.2 cells (CCR-5/L 1.2), membrane preparation
- TEST SUMMARY: 125I-gp120/sCD4/CCR-5 binding assay (CCR-5 receptor binding assay)
- STUDY CONDITIONS: 10 μM compound; 125I-gp120/sCD4 binding to membranes from CCR-5/L 1.2 cells; read-out: % Inhib. @ 10 μM
QUANTITY: inhibition at 10 µM (%)

A selection of reference data follows.
O=C1C(=Cc2cccc(Cl)c2)SC(c2cccc(Cl)c2)N1CCCN1CCN(c2ccccn2)CC1 (centres unmarked) :: 77.8
O=C1C(=Cc2ccccc2)SC(c2cccc(C(F)(F)F)c2)N1CCCN1CCN(c2ccccn2)CC1 (centres unmarked) :: 62
O=C1C(=Cc2ccccc2)SC(c2cccc(Cl)c2)N1CCCN1CCN(c2ccccn2)CC1 (centres unmarked) :: 84.3
O=C1C(=Cc2ccccc2)SC(c2cccc(C(F)(F)F)c2)N1CCCN1CCN(c2ncccn2)CC1 (centres unmarked) :: 79.2
O=C1C(=Cc2cccc(Cl)c2)SC(c2cccc(F)c2)N1CCCN1CCN(c2ncccn2)CC1 (centres unmarked) :: 84.7
O=C1C(=Cc2cccc(C(F)(F)F)c2)SC(c2cccc(Cl)c2)N1CCCN1CCN(c2ccccn2)CC1 (centres unmarked) :: 61.7

a: O=C1C(=Cc2ccccc2)SC(c2cccc(F)c2)N1CCCN1CCN(c2ccccn2)CC1 (centres unmarked)
b: O=C1C(=Cc2cccc(Cl)c2)SC(c2cccc(Cl)c2)N1CCCN1CCN(C2CCCCC2)CC1 (centres unmarked)
Identify the item whose inhibition at 10 µM is the smaller number: a or b Which one? Tell me its label.
b
(b: 43.7%, a: 76.2%)
